assay: Solubility of the compound by HPLC analysis; type: physicochemical
If the reported solubility equals or exceeds 20 mg/mL, assign t. If not, assign f.

Test whether the molecule Cc1csc(-c2nc(CNC(=O)OC(C)C)[nH]c2-c2ccc3ncsc3c2)n1 records solubility of 20 mg/mL or higher.
f

Test whether the molecule CCCc1nc(-c2nc(C)cs2)c(-c2ccc3ncsc3c2)[nH]1 records solubility of 20 mg/mL or higher.
f

Test whether the molecule Cc1csc(-c2nc(C)[nH]c2-c2ccc3ncsc3c2)n1 records solubility of 20 mg/mL or higher.
f

Test whether the molecule Cc1csc(-c2nc(C3CCCCC3)[nH]c2-c2ccc3ncsc3c2)n1 records solubility of 20 mg/mL or higher.
t

###

biological target: TGF-beta receptor type-1 (Homo sapiens, UniProt P36897); assay: Inhibition of human ALK5 using GST-tagged Smad3 as substrate assessed as substrate phosphorylation after 30 mins by ELISA
pIC50: −log10 of the molar value.
If the reported pIC50 equals or exceeds 8, assign MET. If not, assign NOT MET.

>  <Chemical string>
CCOC(=O)NCc1nc(-c2nc(C)cs2)c(-c2ccc3ncsc3c2)[nH]1

>  <Label class>
MET

$$$$

Test whether the compound CCCCNC(=O)c1nc(-c2nc(C)cs2)c(-c2ccc3ncsc3c2)[nH]1 records pIC50 of 8 or higher.
NOT MET

###

biological target: TGF-beta receptor type-1 (Homo sapiens, UniProt P36897); test: Inhibition of human ALK5 using GST-tagged Smad3 as substrate assessed as substrate phosphorylation after 30 mins by ELISA
pIC50: −log10 of the molar value.
If the reported pIC50 equals or exceeds 8, assign fulfilled. If not, assign not fulfilled.

For orientation, consider the following solved cases.
>  <Chemical string>
CCCC(=O)N(C)Cc1nc(-c2ccc3ncsc3c2)c(-c2nc(C)cs2)[nH]1

>  <Measured on>
TGF-beta receptor type-1 (Homo sapiens, UniProt P36897)

>  <Label class>
not fulfilled

$$$$
>  <Chemical string>
Cc1csc(-c2nc(C3CCNCC3)[nH]c2-c2ccc3ncsc3c2)n1

>  <Measured on>
TGF-beta receptor type-1 (Homo sapiens, UniProt P36897)

>  <Label class>
not fulfilled

$$$$
>  <Chemical string>
Cc1csc(-c2nc[nH]c2-c2ccc3ncsc3c2)n1

>  <Measured on>
TGF-beta receptor type-1 (Homo sapiens, UniProt P36897)

>  <Label class>
fulfilled

$$$$
>  <Chemical string>
CNC(=O)CCCc1nc(-c2nc(C)cs2)c(-c2ccc3ncsc3c2)[nH]1

>  <Measured on>
TGF-beta receptor type-1 (Homo sapiens, UniProt P36897)

>  <Label class>
not fulfilled

$$$$

Test whether the molecule Cc1csc(-c2nc(C3CCC(=O)CC3)[nH]c2-c2ccc3ncsc3c2)n1 records pIC50 of 8 or higher.
not fulfilled

###

Quick reference for IC50 among some molecules
molecular target: TGF-beta receptor type-1 (Homo sapiens, UniProt P36897); experiment: Inhibition of human ALK5 using GST-tagged Smad3 as substrate assessed as substrate phosphorylation after 30 mins by ELISA
Give your result in nM as a bare value.

Take a look at these entries with their results.
>  <Chemical string>
CCCC(=O)CCc1nc(-c2nc(C)cs2)c(-c2ccc3ncsc3c2)[nH]1

>  <Recorded endpoint>
IC50

>  <Units of measure>
nM

>  <Endpoint result>
9

$$$$
>  <Chemical string>
CCCc1nc(-c2nc(C)cs2)c(-c2ccc3ncsc3c2)[nH]1

>  <Recorded endpoint>
IC50

>  <Units of measure>
nM

>  <Endpoint result>
8.1

$$$$
>  <Chemical string>
Cc1csc(-c2nc(C)[nH]c2-c2ccc3ncsc3c2)n1

>  <Recorded endpoint>
IC50

>  <Units of measure>
nM

>  <Endpoint result>
5.8

$$$$
>  <Chemical string>
Cc1csc(-c2nc(CC(C)C)[nH]c2-c2ccc3ncsc3c2)n1

>  <Recorded endpoint>
IC50

>  <Units of measure>
nM

>  <Endpoint result>
9

$$$$

Need IC50 of Cc1csc(-c2nc(CNC(=O)OCC(C)(C)C)[nH]c2-c2ccc3ncsc3c2)n1 , thanks.
9.3

###

Quick reference for pIC50 among some molecules
Biological target: TGF-beta receptor type-1 (Homo sapiens, UniProt P36897)
Sequence (P36897 whole entry): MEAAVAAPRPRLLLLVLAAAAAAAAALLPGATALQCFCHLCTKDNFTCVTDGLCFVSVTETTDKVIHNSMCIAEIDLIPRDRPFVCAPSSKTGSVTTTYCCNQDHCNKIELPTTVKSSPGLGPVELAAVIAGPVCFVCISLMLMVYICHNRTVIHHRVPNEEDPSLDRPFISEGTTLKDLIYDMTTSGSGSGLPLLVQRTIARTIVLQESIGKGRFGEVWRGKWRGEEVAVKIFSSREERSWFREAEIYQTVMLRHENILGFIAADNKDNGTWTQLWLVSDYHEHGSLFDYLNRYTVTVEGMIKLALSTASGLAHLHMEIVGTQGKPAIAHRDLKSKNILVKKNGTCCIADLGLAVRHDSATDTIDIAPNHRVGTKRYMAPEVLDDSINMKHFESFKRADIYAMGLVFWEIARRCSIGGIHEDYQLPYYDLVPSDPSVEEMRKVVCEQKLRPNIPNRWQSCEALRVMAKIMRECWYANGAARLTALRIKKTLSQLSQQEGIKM
Test: Inhibition of human ALK5 using GST-tagged Smad3 as substrate assessed as substrate phosphorylation after 30 mins by ELISA
A value of pIC50 is the negative decimal logarithm of a concentration given in moles per litre.

>  <Chemical string>
CCCCOC(=O)NCc1nc(-c2nc(C)cs2)c(-c2ccc3ncsc3c2)[nH]1

>  <Recorded endpoint>
pIC50

>  <Endpoint result>
8.04

$$$$

Need pIC50 of CCCCNCc1nc(-c2nc(C)cs2)c(-c2ccc3ncsc3c2)[nH]1 , thanks.
7.89

Need pIC50 of Cc1csc(-c2nc(C(C)C)[nH]c2-c2ccc3ncsc3c2)n1 , thanks.
8.09

Need pIC50 of COC(=O)NCc1nc(-c2nc(C)cs2)c(-c2ccc3ncsc3c2)[nH]1 , thanks.
8.11

Need pIC50 of Cc1csc(-c2nc(CCCCC(N)=O)[nH]c2-c2ccc3ncsc3c2)n1 , thanks.
8.08

Need pIC50 of Cc1csc(-c2[nH]c(CN3CCCC3=O)nc2-c2ccc3ncsc3c2)n1 , thanks.
7.59

Need pIC50 of CCNC(=O)CCc1nc(-c2nc(C)cs2)c(-c2ccc3ncsc3c2)[nH]1 , thanks.
7.92

Need pIC50 of Cc1csc(-c2nc(C3CC3)[nH]c2-c2ccc3ncsc3c2)n1 , thanks.
8.06

Need pIC50 of Cc1csc(-c2nc(C(C)(C)C)[nH]c2-c2ccc3ncsc3c2)n1 , thanks.
7.85

Need pIC50 of CCCOC(=O)NCc1nc(-c2nc(C)cs2)c(-c2ccc3ncsc3c2)[nH]1 , thanks.
8.14

###

target: TGF-beta receptor type-1 (Homo sapiens, UniProt P36897); test: Inhibition of ALK5-mediated […]-induced Smad2/3 phosphorylation in human A549 cells preincubated for 2 hrs before addition of […] after 1 hr by fluorescence analysis; assay type: cell-based
Classification by IC50 | ranges: c1: < 40 nM; c2: ≥ 40 nM and < 100 nM; c3: ≥ 100 nM

For orientation, consider the following solved cases.
>  <Chemical string>
Cc1csc(-c2nc(CCCCC(N)=O)[nH]c2-c2ccc3ncsc3c2)n1

>  <Label class>
c3

$$$$
>  <Chemical string>
CC(=O)NCCCc1nc(-c2nc(C)cs2)c(-c2ccc3ncsc3c2)[nH]1

>  <Label class>
c3

$$$$

Textbook exercise: identify the category of the compound given here, Cc1csc(-c2nc(CN3CCOC3=O)[nH]c2-c2ccc3ncsc3c2)n1 , according to its measured value.
c2

Textbook exercise: identify the category of the compound given here, CCc1nc(-c2nc(C)cs2)c(-c2ccc3ncsc3c2)[nH]1 , according to its measured value.
c1

Textbook exercise: identify the category of the compound given here, Cc1csc(-c2nc(CNC(=O)OCC(C)(C)C)[nH]c2-c2ccc3ncsc3c2)n1 , according to its measured value.
c2

Textbook exercise: identify the category of the compound given here, CCC(=O)NCCc1nc(-c2nc(C)cs2)c(-c2ccc3ncsc3c2)[nH]1 , according to its measured value.
c3

Textbook exercise: identify the category of the compound given here, Cc1csc(-c2nc(C)[nH]c2-c2ccc3ncsc3c2)n1 , according to its measured value.
c1

Textbook exercise: identify the category of the compound given here, Cc1csc(-c2[nH]c(CN3CCCC3=O)nc2-c2ccc3ncsc3c2)n1 , according to its measured value.
c3

Textbook exercise: identify the category of the compound given here, Cc1csc(-c2nc[nH]c2-c2ccc3ncsc3c2)n1 , according to its measured value.
c1

###

experiment: Solubility of the compound by HPLC analysis; type: physicochemical
Recorded endpoint: solubility (µg/mL)
Give your result in µg/mL as a bare value.

Take a look at these entries with their results.
>  <Chemical string>
Cc1csc(-c2nc(C(F)(F)F)[nH]c2-c2ccc3ncsc3c2)n1

>  <solubility (µg/mL)>
2400

$$$$
>  <Chemical string>
Cc1csc(-c2nc(C3CCOCC3)[nH]c2-c2ccc3ncsc3c2)n1

>  <solubility (µg/mL)>
26100

$$$$
>  <Chemical string>
CCCOC(=O)NCc1nc(-c2nc(C)cs2)c(-c2ccc3ncsc3c2)[nH]1

>  <solubility (µg/mL)>
9800

$$$$
>  <Chemical string>
COC(=O)NCc1nc(-c2nc(C)cs2)c(-c2ccc3ncsc3c2)[nH]1

>  <solubility (µg/mL)>
3930

$$$$
>  <Chemical string>
Cc1csc(-c2nc(C3CCCC3)[nH]c2-c2ccc3ncsc3c2)n1

>  <solubility (µg/mL)>
19800

$$$$

Need solubility of Cc1csc(-c2nc(C(C)(C)C)[nH]c2-c2ccc3ncsc3c2)n1 , thanks.
3490

Need solubility of Cc1csc(-c2nc(C3CC3)[nH]c2-c2ccc3ncsc3c2)n1 , thanks.
23600
